system: HIV-1 Env pseudovirus HIV-16936-2, clone 21; assay: Single-cycle assay TZM-bl, Env pseudovirus panel; settings: subtype C; NIH # 11504; HIV-16936-2, clone 21; TZM-bl cells
readout-label: pIC50
Scale: pIC50 equals -log10([C]), with [C] in mol/L.

Reported pIC50 of Cc1nc([C@@H](CN)NC(=O)c2ccc(-c3ccc(F)c(F)c3)[nH]2)sc1CO (single isomer, unassigned) [NBD-14113, reference compound] : 5.23

###

tested on: HIV-1 Env pseudovirus QD435.100M.ENV.E1; assay: Single-cycle assay TZM-bl, Env pseudovirus panel
pIC50: recorded values
Scale: pIC50 equals -log10([C]), with [C] in mol/L.

# count of solved cases: 2
> print(dat)
                                   molecule  readout.label  result.number
1  Cc1nc(C(CN)NC(=O)c2ccc(-c3ccc4c(c3)OCO4)[nH]2)sc1CO (stereo not drawn)          pIC50           5.23
2  NCC(NC(=O)c1ccc(-c2ccc3c(c2)OCO3)[nH]1)c1ncc(CO)s1 (stereo not drawn)          pIC50           5.28

Turning now to a further molecule:
Test item CNCC(NC(=O)c1ccc(-c2ccc3c(c2)OCO3)[nH]1)c1nc(CO)cs1 (stereo not drawn) ; HIV-1 Env pseudovirus QD435.100M.ENV.E1; reported pIC50 was 5.46
